IC50-based peak height for assorted binders
biological target: Serum samples collected at week 16 from patients immunized with UBI AD vaccine (UB-311); test: comp. ELISA, serum P201

# input Fill in IC50-based peak height for record SGYEVHHQKL [Aβ8-17 or APP 770 (S679-L688)]
# output 0

# input Fill in IC50-based peak height for record AEFRHDSGYE [Aβ2-11 or APP 770 (A673-E682)]
# output 3

# input Fill in IC50-based peak height for record SEVKMDAEFR [Aβ-5-5 or APP 770 (S667-R676)]
# output 0

# input Fill in IC50-based peak height for record GYEVHHQKLV [Aβ9-18 or APP 770 (G680-V689)]
# output 0
